Species: Homo sapiens
experiment: Effect on VEGF-stimulated PI3K signaling pathway in HUVEC assessed as AKT phosphorylation level at 20 uM pretreated for 10 mins followed by VEGF stimulation and subsequent compound addition measured after 20 mins by Western blot analysis relative to control
Activity calls are given as the source filed them. The rule behind the calls is not given here.
parameter measured: Activity

> print(dat)
                                   compound  parameter.measured  value.measured
1  CCOC(=O)c1cc(NC(=O)Nc2cccc(F)c2)n(CC(O)c2ccccc2)n1 (stereo not given)            Activity             51%
2  CC(C)(C)c1cc2n(n1)CC(c1ccccc1)N2C(=O)Nc1cccc(F)c1 (stereo not given)            Activity          Active
3  O=C(c1cnn2c1N(C(=O)Nc1cccc(C(F)(F)F)c1)C(c1ccccc1)C2)N1CCCCC1 (stereo not given)            Activity          Active
4  CCOC(=O)c1cc2n(n1)CC(c1ccccc1)N2C(=O)Nc1cccc(C(F)(F)F)c1 (stereo not given)            Activity          Active
